Reference source for all entries: patent US9493420B2

- Tested on: mitogen-induced murine spleen lymphocytes
- Type: cell-based
- condition.label: Table 14; mouse spleen lymphocytes
experimental.endpoint: cytotoxicity values
Output should be the measured figure followed by the unit it is expressed in.

These solved cases illustrate the format of a correct answer.
>>> result_value("Clc1ccc2c(NCCCNCCCN(Cc3ccccc3)Cc3ccccc3)ccnc2c1")
"700 nM"
>>> result_value("Clc1ccc2c(NCCN3CCCN(C(c4ccccc4)c4ccccc4)CC3)ccnc2c1")
"5300 nM"
>>> result_value("Clc1ccc2c(NCCCN3CCCN(C(c4ccccc4)c4ccccc4)CC3)ccnc2c1")
"700 nM"

## Input Which cytotoxicity values value belongs to "CN(CCCNc1ccnc2cc(Cl)ccc12)CCCN1c2ccccc2CCc2ccccc21" ?
## Output 700 nM
